System Under Test: CDK4/CyclinD1 (h) (Homo sapiens)
Sequence (P11802 whole entry): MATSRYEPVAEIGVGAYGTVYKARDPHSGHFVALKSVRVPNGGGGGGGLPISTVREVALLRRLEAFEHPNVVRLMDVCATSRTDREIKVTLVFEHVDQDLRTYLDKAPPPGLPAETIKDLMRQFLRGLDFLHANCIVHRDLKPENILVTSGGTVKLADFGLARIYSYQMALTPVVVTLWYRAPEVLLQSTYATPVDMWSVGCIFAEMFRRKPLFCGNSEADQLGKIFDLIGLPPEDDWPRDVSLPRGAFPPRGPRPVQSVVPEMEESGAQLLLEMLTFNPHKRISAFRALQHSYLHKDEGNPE
Sequence (P24385 whole entry partner): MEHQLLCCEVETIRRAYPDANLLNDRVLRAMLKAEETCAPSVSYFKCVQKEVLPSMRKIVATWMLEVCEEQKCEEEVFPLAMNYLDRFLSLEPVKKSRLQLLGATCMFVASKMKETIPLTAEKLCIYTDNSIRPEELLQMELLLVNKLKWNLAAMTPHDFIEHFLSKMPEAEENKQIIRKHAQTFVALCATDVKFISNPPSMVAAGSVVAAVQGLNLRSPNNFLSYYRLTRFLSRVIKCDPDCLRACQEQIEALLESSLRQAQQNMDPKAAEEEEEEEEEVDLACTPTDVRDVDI
Experiment Description: CDK4/CyclinD1 human kinase inhibition, SPA with GST-pRb substrate
Assay type: biochemical
Measurement Context: read-out: CDK4 pIC50 (converted)
Measured Metric: IC50 (µM)

(1) O=C1CN2CCN(CC2)Cc2cc(ccc2N2CCOCC2)Nc2nccc(n2)-c2cccc(c2)OCCN1
(2) CN(C)C(=O)c1ccc2cc1CN1CCC[C@H]1C(=O)NCc1cccc(c1)-c1ccnc(n1)N2
Task item: Which of the two gives a bigger number for IC50: 1 or 2 ? Use the label to indicate which entry you chose.
Reply: 1
(1: 8.13 µM, 2: 4.27 µM)

###

System Under Test: GSK3β (h) (Homo sapiens, UniProt P49841)
Sequence (P49841 whole entry): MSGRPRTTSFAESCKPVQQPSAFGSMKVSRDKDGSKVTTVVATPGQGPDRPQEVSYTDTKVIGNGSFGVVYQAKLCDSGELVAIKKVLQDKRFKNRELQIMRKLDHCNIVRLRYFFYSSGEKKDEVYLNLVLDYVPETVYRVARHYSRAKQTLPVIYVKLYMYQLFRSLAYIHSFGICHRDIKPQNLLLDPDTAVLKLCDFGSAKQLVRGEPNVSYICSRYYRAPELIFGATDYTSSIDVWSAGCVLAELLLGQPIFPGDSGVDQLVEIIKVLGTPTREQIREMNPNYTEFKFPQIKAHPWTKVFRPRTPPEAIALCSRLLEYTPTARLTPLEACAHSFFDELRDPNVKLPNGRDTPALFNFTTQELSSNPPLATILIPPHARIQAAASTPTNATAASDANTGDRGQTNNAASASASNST
Experiment Description: GSK-3β human kinase inhibition, SPA
Format: biochemical
Measurement Context: read-out: GSK3b pIC50 (converted)
Method: The in vitro inhibition of a panel of kinases was assessed using either the scintillation proximity assay (SPA) as described by Cook, N. D. et al., Advances in Experimental Medicine and Biology (1991), 36; p. 525-528. In the SPA technology the activity of the kinase of interest is measured using an appropriate biotinylated substrate that is incubated with the aforementioned kinase protein in the presence of (^33P) radiolabeled ATP. […] The scintillation intensity is detected by imaging on Leadseeker. […]
Measured Metric: IC50 (nM)

>>> numeric_readout("O=C(NC1CCCCC1)c1ccc2cc1CN1CCC[C@H]1C(=O)NCc1cccc(c1)-c1ccnc(n1)N2")
263
>>> numeric_readout("O=C1NCc2cc(ccc2N2CCOCC2)Nc2nccc(n2)-c2cccc(c2)CCN2CCC[C@@H]12")
186
>>> numeric_readout("COc1cc2cc(c1OC)CNC(=O)[C@@H]1CCCN1Cc1cccc(c1)-c1ccnc(n1)N2")
100

(a) C[C@@H]1NCCc2cccc(c2)-c2ccnc(n2)Nc2ccc(N3CCOCC3)c(c2)CNC1=O
(b) O=C1CN2CCN(CC2)Cc2cc(ccc2N2CCOCC2)Nc2nccc(n2)-c2ccc(cc2)CN1
(c) COc1ccc2cc1CN1CCC(CC1)C(=O)N(C)CCCN(C)c1ccc(cn1)-c1ccnc(n1)N2
Task item: Exam item: list the entries in increasing order of IC50. # list labels per requested ordering
Reply: a, c, b
(a: 75.9 nM, c: 2950 nM, b: 6030 nM)

(1) O=C1NCc2cccc(c2)-c2ccnc(n2)Nc2cccc(c2)CN[C@H]1CO
(2) O=C1NCc2cccc(c2)-c2ccnc(n2)Nc2cc(ccc2Cl)CN[C@H]1Cc1ccccc1
(3) COc1cc2cc(c1)Nc1nccc(n1)-c1ccc(cc1)CN(C)CCNC(=O)CN1CCN(CC1)C2
Task item: Could you please order the items by IC50, going from the lowest number to the highest? To answer, write out the labels according to the requested order.
Reply: 1, 3, 2

###

Test system: HCT-116
Experiment Description: Cellular proliferation assay (Alamar blue), HCT-116
Format: cell-based
Measurement Context: Homo sapiens, 10% FCS, 72 hours with compound, Alamar blue 4 h
pIC50: −log10 of the molar value.
Measured Metric: pIC50

>>> numeric_readout("O=C(NC1CCCCC1)c1ccc2cc1CN1CCC[C@H]1C(=O)NCc1cccc(c1)-c1ccnc(n1)N2")
5.41

(1) O=C1NCc2ccc(cc2)-c2ccnc(n2)Nc2ccc(N3CCOCC3)c(c2)CN2CCC1CC2
(2) CN(C)CCNC(=O)c1ccc2cc1CN1CCC[C@H]1C(=O)NCc1cccc(c1)-c1ccnc(n1)N2
Task item: # min-compare on pIC50 between 1 and 2 Lab log: write the label of the selected item as the result.
Reply: 1

Reference for the values: patent US8609836B2
